Origin of values: paper PMC9115112

List of pKi tested on human A3AR (Homo sapiens).
Sequence (P0DMS8 whole entry): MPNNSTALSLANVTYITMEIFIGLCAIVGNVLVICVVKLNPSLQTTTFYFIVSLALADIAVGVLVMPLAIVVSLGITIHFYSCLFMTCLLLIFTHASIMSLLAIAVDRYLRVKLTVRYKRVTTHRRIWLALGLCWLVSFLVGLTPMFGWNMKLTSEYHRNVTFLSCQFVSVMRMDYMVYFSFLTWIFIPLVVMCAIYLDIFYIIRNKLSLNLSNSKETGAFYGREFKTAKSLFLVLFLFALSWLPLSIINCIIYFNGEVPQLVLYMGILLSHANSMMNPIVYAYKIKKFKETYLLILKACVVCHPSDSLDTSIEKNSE
pKi: −log10 of the molar value.

[
  {
    "COMPOUND": "CC1=C(C(=O)OC(C)C)C(c2ccco2)n2c(nc3ccccc32)N1Cc1ccccc1F (centres unmarked) [ISAM-R56A]",
    "TESTED ON": "human A3AR (Homo sapiens)",
    "pKi": "< 6.00"
  }
]

Field: next compound
Given the compound CC1=C(C(=O)OC(C)C)C(c2ccco2)N2C(=N1)N(Cc1ccccc1F)c1ccccc12 (centres unmarked) [ISAM-R56B] , what is its reported pKi?
< 6.00
